- Tested system: Grb2 SH2 (UniProt P62993)
- Protocol text: SH2 binding enrichment of the phosphorylated peptide, bacterial display (enrichment ratio); higher = better substrate or ligand; peptides without Tyr show the background
Value type: SH2 binding enrichment

{"Residues": "SWSTSYSGYRC [NKAPL_Y91_Y96C]", "SH2 binding enrichment": 0.914}
{"Residues": "VNFGAYINDFN [GLB1_Y488_K493N_YF]", "SH2 binding enrichment": 3.12}
{"Residues": "RAADYYSQQMA [GBP6_Y334]", "SH2 binding enrichment": 1.01}
{"Residues": "VMTSKYRGGGG [HBA1_Y141_L137M]", "SH2 binding enrichment": 0.834}
{"Residues": "YHLLPYTVRAM [PARS2_Y93]", "SH2 binding enrichment": 1.15}

(P) LERYIYNREEF [HLA-DPB1_Y59]
(Q) SSEYHCVGGFY [CTSC_Y347_Y347C]
# returns the entry with the larger SH2 binding enrichment; inputs P and Q Indicate which entry you chose by stating its label.
P
(P: 0.956, Q: 0.557)

(I) ENRKFYMDLKE [PURA_Y156_YF]
(II) CSTIHYNFMCN [TP53_Y234_T230S_YF]
Task for the reader: decide whether I or II has the larger SH2 binding enrichment. Use the label to indicate which entry you chose.
II

###

- Tested on: AncSZ;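 also: 11-residue human phosphosite peptides and single-mutation variants displayed on the E. coli surface, counted by deep sequencing, each peptide's frequency after selection divided by its frequency in the unselected input library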;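 also: frequency after pTyr selection over input frequency; kinase dosed for 20-30% of maximal phosphorylation in three min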
- Protocol text: phosphorylation enrichment, bacterial display (enrichment ratio); higher = better substrate or ligand; peptides without Tyr show the background
Value type: phosphorylation enrichment
Output: the number by itself.

Worked examples, 5 sequences total:
{"Residues": "FLAVGYHKPHI [IDS_Y225]", "Tested system": "AncSZ", "phosphorylation enrichment": 0.741}
{"Residues": "KAIMTYVSSFY [ACTN4_Y260]", "Tested system": "AncSZ", "phosphorylation enrichment": 0.976}
{"Residues": "SHNKFYMLVAR [MFSD8_Y134_YF]", "Tested system": "AncSZ", "phosphorylation enrichment": 1.15}
{"Residues": "ELPQTYCVSGP [DYSF_Y1684_G1679E]", "Tested system": "AncSZ", "phosphorylation enrichment": 0.791}
{"Residues": "KRLDGYVLEGW [IGSF9_Y656_R661W]", "Tested system": "AncSZ", "phosphorylation enrichment": 0.712}

Quick check: phosphorylation enrichment of ARRHPYFYAPE [ALB_Y172] ?
0.883

Sample YFCRWYRNRKS [EREG_Y144] — what was its phosphorylation enrichment?
0.864

Bench note: what phosphorylation enrichment did GESKDYALHVG [SVIL_Y185] show?
0.606

Look at this sequence and give its reported phosphorylation enrichment. HGDDDYDDPEL [CLNK_Y69_S65G]
1.91

Field request: phosphorylation enrichment | item: EFQLPYFNTVP [BMPR1A_Y457_M460T_YF]
0.879

May I ask what phosphorylation enrichment has been recorded for PEADKYHLTYA [FGG_Y300_R301H] ?
0.685

Which phosphorylation enrichment reading was recorded for the sequence VFFDLYGGEKF [PTPN11_Y66_D61V_YF] ?
1.03

Which phosphorylation enrichment is listed for IINENYDFLKV [NUP98_Y1664_G1669V_YF] ?
1.05

Name the reported phosphorylation enrichment value associated with the sequence PVQAADQKVVA [HBB_Y131_Y131D]
0.918

Quick check: phosphorylation enrichment of AEMKRYSESSS [RAI14_Y869_A870S] ?
0.524

Value lookup for phosphorylation enrichment; key = SAPPSYEETVA [LITAF_Y23]
1.1

Need phosphorylation enrichment, item IENKLYGMSDP [RET_Y1062]
0.941

Report phosphorylation enrichment for ALETLYKKAVK [CC2D2A_Y381_E376A] please.
0.559

Suppose we examine the sequence NVPILYTASQA [CTNNA1_Y222] ; what phosphorylation enrichment value has been reported?
0.553

These measurements were taken from the supplement of paper PMC10065799.
